Assay: Pharmacokinetic study after oral administration
Assay type: in vivo, Sprague-Dawley (SD) rats
Conditions: Sprague-Dawley, rat, serum, po; SD rats, I.G. 20 mg/kg, mean ± S.D., n = 3
Parameter measured: Cmax
Form field: result (number plus unit)

Entry under test: O=C(OCCOC(=O)C(Cl)Cl)c1cc(O)c2c(c1)C(=O)c1cccc(O)c1C2=O . Its Cmax was 2680 ng/mL

====

Experiment: Pharmacokinetic study after oral administration
Type: in vivo, Sprague-Dawley (SD) rats
Conditions: Sprague-Dawley, rat, serum, po; SD rats, I.G. 20 mg/kg, mean ± S.D., n = 3
Parameter measured: AUC(0-inf) (ng·h/mL)
Numbers only, in ng·h/mL.

Entry under test: O=C(OCCOC(=O)C(Cl)Cl)c1cc(O)c2c(c1)C(=O)c1cccc(O)c1C2=O . Its AUC(0-inf) was 8980

====

Experiment: Pharmacokinetic study after oral administration
Type: in vivo, Sprague-Dawley (SD) rats
Conditions: Sprague-Dawley, rat, serum, po; SD rats, I.G. 20 mg/kg, mean ± S.D., n = 3
Procedure: HPLC was conducted to evaluate the absorption and distribution of Rhein-DCA conjugate in […] after oral administration. Rhein-DCA was orally administered to Sprague-Dawley (SD) rats at 20 mg/kg, and the concentration of the drug in the blood samples was serially measured at predefined time points. HPLC was used to evaluate the absorption and distribution of Rhein-DCA in […] after oral administration. […]
Parameter measured: AUC(0-t) (ng·h/mL)
Give bare numbers, in ng·h/mL.

Entry under test: O=C(OCCOC(=O)C(Cl)Cl)c1cc(O)c2c(c1)C(=O)c1cccc(O)c1C2=O . Its AUC(0-t) was 8220

====

Assay: Tissue distribution after oral administration
Format: in vivo
Details: mouse, tumor; 4T1-bearing Balb/c mice, oral 20 mg/kg; sampled at 2, 6, 24 h; read-out: time of peak concentration in tumors
Parameter measured: Tmax (h)
Answers are plain numbers, in h.

Entry under test: O=C(OCCOC(=O)C(Cl)Cl)c1cc(O)c2c(c1)C(=O)c1cccc(O)c1C2=O . Its Tmax was 6

====

Test: Pharmacokinetic study after oral administration
Format: in vivo, Sprague-Dawley (SD) rats
Conditions: Sprague-Dawley, rat, serum, po; SD rats, I.G. 20 mg/kg, mean ± S.D., n = 3
Parameter measured: half-life (h)
Numbers only, in h.

Entry under test: O=C(OCCOC(=O)C(Cl)Cl)c1cc(O)c2c(c1)C(=O)c1cccc(O)c1C2=O . Its half-life was 5.54

====

Test: Pharmacokinetic study after oral administration
Format: in vivo, Sprague-Dawley (SD) rats
Conditions: Sprague-Dawley, rat, serum, po; SD rats, I.G. 20 mg/kg, mean ± S.D., n = 3
Parameter measured: Tmax (h)
One number for each entry, in h.

Entry under test: O=C(OCCOC(=O)C(Cl)Cl)c1cc(O)c2c(c1)C(=O)c1cccc(O)c1C2=O . Its Tmax was 1.5

Sourced from paper PMC12036875
